ASSAY SYSTEM: Nonstructural protein 1 (Influenza A virus)
Sequence (Q194T2 whole entry): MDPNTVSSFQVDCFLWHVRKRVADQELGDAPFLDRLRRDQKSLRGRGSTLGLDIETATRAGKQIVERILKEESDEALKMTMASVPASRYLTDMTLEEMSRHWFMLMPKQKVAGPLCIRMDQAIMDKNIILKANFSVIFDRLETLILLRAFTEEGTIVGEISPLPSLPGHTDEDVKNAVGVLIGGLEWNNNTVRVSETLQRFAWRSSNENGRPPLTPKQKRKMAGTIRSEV
Type: functional, Influenza A virus (A/California/07/2009(H1N1))
Calls of active or inactive are those of the source.
Could you please report measured IC50 for the items listed next?

Query: Retrieve IC50 measured for COc1c(O)cccc1/C=N/NC(=O)Cn1ccnc1C and print it.
Result: 20.4 µM (active)

Query: Retrieve IC50 measured for COc1ccc(N)c2c1C(=O)c1ccccc1C2=O and print it.
Result: 31 µM (active)

Query: Retrieve IC50 measured for COC(=O)c1ccc2c(c1)C(C)(C)C(/C=C/c1ccc(O)cc1)=[N+]2C and print it.
Result: 20.2 µM (active)

Query: Retrieve IC50 measured for CN(C)c1ccc(/N=C/C=C2\N(C)c3ccccc3C2(C)C)cc1 and print it.
Result: 13.8 µM (active)

Query: Retrieve IC50 measured for CCOC(=O)c1ccc(N2N=C(C)/C(=C/C=C/c3ccco3)C2=O)cc1 and print it.
Result: > 100 µM (active)
